From: paper PMC5055850

- experimentalTarget: mouse Fpr1 (Mus musculus, UniProt P33766)
- Sequence (P33766 whole entry): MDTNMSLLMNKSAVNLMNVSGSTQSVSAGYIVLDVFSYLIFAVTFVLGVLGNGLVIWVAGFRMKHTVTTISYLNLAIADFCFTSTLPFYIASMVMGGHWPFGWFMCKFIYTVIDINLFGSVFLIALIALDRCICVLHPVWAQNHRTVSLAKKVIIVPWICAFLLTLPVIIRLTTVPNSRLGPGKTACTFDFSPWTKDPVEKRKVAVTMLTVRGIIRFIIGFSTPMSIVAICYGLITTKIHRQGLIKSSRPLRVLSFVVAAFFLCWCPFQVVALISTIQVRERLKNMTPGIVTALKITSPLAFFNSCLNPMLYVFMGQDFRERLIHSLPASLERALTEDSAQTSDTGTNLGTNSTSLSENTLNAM
- testSummary: Ca2+ flux assay in mFpr1-RBL cells
- Assay type: cell-based
pEC50: −log10 of the molar value.
assayEndpoint: pEC50

A. Cc1nn(CC(=O)Nc2ccc(Br)cc2)c(=O)c(N)c1C(=O)C=CN(C)C [Compound 24]
B. COc1ccc(Nc2c(-c3ccn(C)n3)c(C)nn(CC(=O)Nc3ccc(Br)cc3)c2=O)cc1 [Compound 27b]
Of A and B , whose reported pEC50 is the larger number? Your answer should be the label attached to the chosen record.
A

---

- Tested on: human polymorphonuclear neutrophils (hPMN)
- testSummary: Ca2+ flux assay in human neutrophils
- Assay type: cell-based
- settings: Homo sapiens, Polymorphonuclear neutrophil, read-out: hPMN EC50
assayEndpoint: EC50 (µM)

Previously resolved entries follow.
What value of measured EC50 is listed for CCCCC(=O)c1c(C)nn(CC(=O)Nc2ccc(Br)cc2)c(=O)c1Nc1cccc(OC)c1 ?
8

State the recorded EC50 for this entry: CCCCc1c(C)nn(CC(=O)Nc2ccc(Br)cc2)c(=O)c1Nc1cccc(OC)c1 [Compound 13c]
1.4

Requested read-out: EC50. Entry: COc1cccc(Nc2c(C(=O)C3CCCC3)c(C)nn(CC(=O)Nc3ccc(Br)cc3)c2=O)c1
1.7

Quick check: EC50 of C=Cc1c(C)nn(CC(=O)Nc2ccc(Br)cc2)c(=O)c1Nc1cccc(OC)c1 ?
0.84

If you can, please state the reported EC50 value of COc1cccc(Nc2c(-c3ccn(C)n3)c(C)nn(CC(=O)Nc3ccc(Br)cc3)c2=O)c1 [Compound 27a] .
0.59

Which EC50 value belongs to COc1cccc(Nc2cc(C)cn(CC(=O)Nc3ccc(Br)cc3)c2=O)c1 [Compound 29b] ?
4.31

a. CCOC(=O)c1c(C)nn(CC(=O)Nc2ccc(Br)cc2)c(=O)c1Nc1cccc(OC)c1 [Compound 19b]
b. CCCC(=O)c1c(C)nn(CC(=O)Nc2ccc(Br)cc2)c(=O)c1Nc1cccc(OC)c1
I'm curious, which of these has a smaller EC50 number: a or b ? Answer by quoting the chosen item's label.
a

---

- experimentalTarget: mouse Fpr2 (Mus musculus, UniProt O88536)
- Sequence (O88536 1-351): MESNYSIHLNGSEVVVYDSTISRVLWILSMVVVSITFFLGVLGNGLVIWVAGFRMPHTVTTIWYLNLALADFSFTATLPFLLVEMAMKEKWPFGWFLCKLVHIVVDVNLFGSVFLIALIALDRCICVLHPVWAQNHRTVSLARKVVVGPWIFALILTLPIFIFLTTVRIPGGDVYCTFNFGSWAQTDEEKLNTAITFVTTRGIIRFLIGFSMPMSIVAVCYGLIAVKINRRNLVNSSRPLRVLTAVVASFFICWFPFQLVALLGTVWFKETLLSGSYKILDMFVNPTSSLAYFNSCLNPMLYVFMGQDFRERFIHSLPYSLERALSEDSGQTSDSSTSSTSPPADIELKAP
- testSummary: Ca2+ flux assay in mFpr2-RBL cells
assayEndpoint: EC50 (µM)

1. Cc1nn(CC(=O)Nc2ccc(Br)cc2)c(=O)c(N)c1C(=O)C=CN(C)C
2. COc1ccc(Nc2c(-c3ccn(C)n3)c(C)nn(CC(=O)Nc3ccc(Br)cc3)c2=O)cc1 [Compound 27b]
// which entry reports the smaller EC50, 1 or 2 ? Your answer should be the label of the entry you select.
1

---

- experimentalTarget: FPR1 (Homo sapiens, UniProt P21462)
- testSummary: Ca2+ flux assay in FPR1-HL60 cells
- Type: cell-based
- settings: read-out: FPR1-HL60 EC50; Ca2+ flux, HL-60 cells transfected with FPR1
assayEndpoint: EC50 (µM)

Record request: EC50 value, item COc1cccc(Nc2c(C(=O)C3CCCCC3)c(C)nn(CC(=O)Nc3ccc(Br)cc3)c2=O)c1 [Compound 8f]
10

1. Cc1nn(CC(=O)Nc2ccc(Br)cc2)c(=O)c(N)c1-c1cc[nH]n1 [Compound 25]
2. CCCCCc1c(C)nn(CC(=O)Nc2ccc(Br)cc2)c(=O)c1Nc1cccc(OC)c1 [Compound 13d]
Hello, I am sorting some records. Could you say if 1 or 2 has the smaller EC50 value? // return label of chosen record
2

---

- experimentalTarget: FPR1 (Homo sapiens, UniProt P21462)
- testSummary: Ca2+ flux assay in FPR1-HL60 cells
- Assay type: cell-based
pEC50: −log10 of the molar value.
assayEndpoint: pEC50

API: value(readout=pEC50, system=FPR1 (Homo sapiens, UniProt P21462)) for record Cc1nn(CC(=O)Nc2ccc(Br)cc2)c(=O)c(N)c1C(=O)C=CN(C)C [Compound 24]
5.29

Reported pEC50 for FPR1 (Homo sapiens, UniProt P21462), given C=Cc1c(C)nn(CC(=O)Nc2ccc(Br)cc2)c(=O)c1Nc1cccc(OC)c1 [Compound 15] ?
6.64

a. COC(=O)c1c(C)nn(CC(=O)Nc2ccc(Br)cc2)c(=O)c1Nc1cccc(OC)c1 [Compound 19a]
b. COc1cccc(Nc2cc(C)cn(CC(=O)Nc3ccc(Br)cc3)c2=O)c1 [Compound 29b]
c. CCc1c(C)nn(CC(=O)Nc2ccc(Br)cc2)c(=O)c1Nc1cccc(OC)c1 [Compound 13a]
d. CCCCC(=O)c1c(C)nn(CC(=O)Nc2ccc(Br)cc2)c(=O)c1Nc1cccc(OC)c1 [Compound 8d]
Task for the reader: rank each entry by its pEC50, from the minimum upward. Labels, ranked as asked.
d, a, b, c
(d: 4.81, a: 5.36, b: 5.60, c: 6.74)

P. Cc1nn(CC(=O)Nc2ccc(Br)cc2)c(=O)c(N)c1-c1ccn(C)n1 [Compound 26]
Q. COc1cccc(Nc2cc(C)nn(CC(=O)Nc3ccc(Br)cc3)c2=O)c1 [Compound 29a]
Hi team, can someone confirm which has the larger pEC50: P or Q ? Thanks. Pick one; state its label.
Q

---

- experimentalTarget: FPR2 (Homo sapiens)
- Sequence (P25090 whole entry): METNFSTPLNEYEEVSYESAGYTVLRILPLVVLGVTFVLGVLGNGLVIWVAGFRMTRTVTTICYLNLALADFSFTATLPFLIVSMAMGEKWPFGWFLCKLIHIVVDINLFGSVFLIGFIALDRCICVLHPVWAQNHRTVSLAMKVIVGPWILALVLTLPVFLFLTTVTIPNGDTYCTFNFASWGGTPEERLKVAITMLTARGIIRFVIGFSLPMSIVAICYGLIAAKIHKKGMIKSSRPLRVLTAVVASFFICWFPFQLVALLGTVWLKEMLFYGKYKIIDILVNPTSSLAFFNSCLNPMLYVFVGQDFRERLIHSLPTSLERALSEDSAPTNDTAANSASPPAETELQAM
- testSummary: Ca2+ flux assay in FPR2-HL60 cells
- Assay type: cell-based
- settings: FPR2-HL60 EC50, Ca2+ flux, HL-60 cells transfected with FPR2
assayEndpoint: EC50 (µM)

Use these answered entries as a reference point.
I am curious: what EC50 value has been reported for COc1cccc(Nc2c(-c3ccn(C)n3)c(C)nn(CC(=O)Nc3ccc(Br)cc3)c2=O)c1 [Compound 27a] ?
0.59

GET /values?readout=EC50&item= Cc1nn(CC(=O)Nc2ccc(Br)cc2)c(=O)c(N)c1C(=O)C=CN(C)C
5.7

Give the measured EC50 of COc1cccc(Nc2c(C(=O)C3CCCC3)c(C)nn(CC(=O)Nc3ccc(Br)cc3)c2=O)c1 .
10.5

A. COc1cccc(Nc2cc(C)nn(CC(=O)Nc3ccc(Br)cc3)c2=O)c1 [Compound 29a]
B. COC(=O)c1c(C)nn(CC(=O)Nc2ccc(Br)cc2)c(=O)c1Nc1cccc(OC)c1 [Compound 19a]
C. C=Cc1c(C)nn(CC(=O)Nc2ccc(Br)cc2)c(=O)c1Nc1cccc(OC)c1
Arrange these 3 compounds in increasing order of EC50. Answer by writing out the labels in the requested order.
C, B, A
(C: 0.11 µM, B: 2.3 µM, A: 9.6 µM)

---

- experimentalTarget: FPR1 (Homo sapiens, UniProt P21462)
- Sequence (P21462 1-350): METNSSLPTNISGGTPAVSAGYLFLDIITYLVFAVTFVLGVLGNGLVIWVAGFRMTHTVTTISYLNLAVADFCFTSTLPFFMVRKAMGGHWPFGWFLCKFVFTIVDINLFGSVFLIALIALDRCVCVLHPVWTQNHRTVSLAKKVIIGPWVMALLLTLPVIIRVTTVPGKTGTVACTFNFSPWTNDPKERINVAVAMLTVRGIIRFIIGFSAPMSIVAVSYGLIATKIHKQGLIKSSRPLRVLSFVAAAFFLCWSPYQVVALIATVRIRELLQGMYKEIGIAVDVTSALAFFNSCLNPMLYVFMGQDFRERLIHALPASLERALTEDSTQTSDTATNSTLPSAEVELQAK
- testSummary: Ca2+ flux assay in FPR1-HL60 cells
- Format: cell-based
pEC50: −log10 of the molar value.
assayEndpoint: pEC50

Examples with their reported pEC50 follow.
GET /values?readout=pEC50&system=FPR1 (Homo sapiens, UniProt P21462)&item= COc1cccc(Nc2c(-c3ccn(C)n3)c(C)nn(CC(=O)Nc3ccc(Br)cc3)c2=O)c1 [Compound 27a]
5.44

Value wanted: pEC50 (FPR1 (Homo sapiens, UniProt P21462)) of entry CCC(=O)c1c(C)nn(CC(=O)Nc2ccc(Br)cc2)c(=O)c1Nc1cccc(OC)c1
5.57

# get_value(readout= pEC50, system= FPR1 (Homo sapiens, UniProt P21462)) for COc1cccc(Nc2c(C(=O)C3CCCC3)c(C)nn(CC(=O)Nc3ccc(Br)cc3)c2=O)c1
5.80

Write down the reported pEC50 of CCCCc1c(C)nn(CC(=O)Nc2ccc(Br)cc2)c(=O)c1Nc1cccc(OC)c1 [Compound 13c] , test system: FPR1 (Homo sapiens, UniProt P21462).
5.44

1. CCOC(=O)c1c(C)nn(CC(=O)Nc2ccc(Br)cc2)c(=O)c1Nc1cccc(OC)c1 [Compound 19b]
2. CCCC(=O)c1c(C)nn(CC(=O)Nc2ccc(Br)cc2)c(=O)c1Nc1cccc(OC)c1
Which one would you say has the larger pEC50 value: 1 , or 2 ? Let me know the label of the one you choose.
1
